tested on: WA09 hES cells; assay: Phase 2 targeted biomarker assay, ornithine/cystine ratio, 9-point dose response
parameter_measured: Targeted Biomarker Assay prediction

These recorded examples may help you get a feel for the data.
compound	Targeted Biomarker Assay prediction
O=c1[nH]cc(F)c(=O)[nH]1	TER
CO[C@H]1C[C@@H]2CC[C@@H](C)[C@@](O)(O2)C(=O)C(=O)N2CCCC[C@H]2C(=O)O[C@H]([C@H](C)C[C@@H]2CC[C@@H](OCCO)[C@H](OC)C2)CC(=O)[C@H](C)/C=C(\C)[C@@H](O)[C@@H](OC)C(=O)[C@H](C)C[C@H](C)/C=C/C=C/C=C/1C	TER
CC1=C(/C=C/C(C)=C/C=C/C(C)=C\C(=O)O)C(C)(C)CCC1 [13-cis Retinoic Acid]	TER
O=C1O[C@H]([C@@H](O)CO)C(O)=C1O	NON

Please report the recorded Targeted Biomarker Assay prediction for C[C@H]1[C@H](OC(=O)CCC(=O)O)O[C@@H]2O[C@@]3(C)CC[C@H]4[C@H](C)CC[C@@H]1[C@@]24OO3 [Artesunate] .
TER

Please report the recorded Targeted Biomarker Assay prediction for CS(=O)(=O)OCCCCOS(C)(=O)=O .
TER

Please report the recorded Targeted Biomarker Assay prediction for Nc1nc2c(ncn2COCCO)c(=O)[nH]1 .
NON

Please report the recorded Targeted Biomarker Assay prediction for CC(=O)Nc1ccc(O)cc1 .
NON

----------
tested on: WA09 hES cells; experiment: Phase 2 targeted biomarker assay, ornithine/cystine ratio, 9-point dose response; settings: human, 72 h
I'd be grateful if you could share measured Teratogenicity Potential (μM) O/C Ratio for these entries.

Please report the recorded Teratogenicity Potential (μM) O/C Ratio for CC(=O)Nc1ccc(O)cc1 [Acetaminophen] .
>300 µM

Please report the recorded Teratogenicity Potential (μM) O/C Ratio for Cc1ncc(C[n+]2csc(CCO)c2C)c(N)n1 [Thiamine] .
>300 µM

Please report the recorded Teratogenicity Potential (μM) O/C Ratio for O=C1NS(=O)(=O)c2ccccc21 [Saccharin] .
>300 µM

Please report the recorded Teratogenicity Potential (μM) O/C Ratio for CC1(C)S[C@@H]2[C@H](NC(=O)[C@H](N)c3ccc(O)cc3)C(=O)N2[C@H]1C(=O)O [Amoxicillin] .
>300 µM

Please report the recorded Teratogenicity Potential (μM) O/C Ratio for CC(C)(S)[C@@H](N)C(=O)O [D-Penicillamine] .
<0.04 µM

----------
system: WA09 hES cells
parameter_measured: Viability Prediction

molecule	parameter_measured	reported_value
NC(=O)NO [Hydroxyurea]	Viability Prediction	TER
O=C1NC(=O)C(c2ccccc2)(c2ccccc2)N1	Viability Prediction	NON
CN(Cc1cnc2nc(N)nc(N)c2n1)c1ccc(C(=O)N[C@@H](CCC(=O)O)C(=O)O)cc1 [Methotrexate]	Viability Prediction	TER

----------
system: WA09 hES cells; assay: Phase 2 targeted biomarker assay, ornithine/cystine ratio, 9-point dose response
parameter_measured: Targeted Biomarker Assay prediction

molecule	reported_value
CC1=C(/C=C/C(C)=C/C=C/C(C)=C/C(=O)O)C(C)(C)CCC1 [All-trans Retinoic Acid]	TER
NNC(=O)c1ccncc1	NON
N[C@@H](Cc1cc(I)c(Oc2cc(I)c(O)c(I)c2)c(I)c1)C(=O)O	NON
NC(=O)N1c2ccccc2C=Cc2ccccc21 [Carbamazepine]	TER
CC(C)CN(C[C@@H](O)[C@H](Cc1ccccc1)NC(=O)O[C@H]1CCOC1)S(=O)(=O)c1ccc(N)cc1	NON
S=P(N1CC1)(N1CC1)N1CC1	TER
COc1ccccc1Oc1c(NS(=O)(=O)c2ccc(C(C)(C)C)cc2)nc(-c2ncccn2)nc1OCCO	NON
CCC(=O)NCC[C@@H]1CCc2ccc3c(c21)CCO3	NON
N[C@@H](CC(=O)N1CCn2c(nnc2C(F)(F)F)C1)Cc1cc(F)c(F)cc1F	NON
CC(C)(S)[C@@H](N)C(=O)O	TER

Please report the recorded Targeted Biomarker Assay prediction for CC1=C(/C=C/C(C)=C/C=C/C(C)=C/CO)C(C)(C)CCC1 .
NON

Please report the recorded Targeted Biomarker Assay prediction for O=C1NC(=O)C(c2ccccc2)(c2ccccc2)N1 .
NON

Please report the recorded Targeted Biomarker Assay prediction for O=C1NS(=O)(=O)c2ccccc21 .
NON

Please report the recorded Targeted Biomarker Assay prediction for CC1(C)S[C@@H]2[C@H](NC(=O)[C@H](N)c3ccc(O)cc3)C(=O)N2[C@H]1C(=O)O .
NON

Please report the recorded Targeted Biomarker Assay prediction for O=C1CCC(N2C(=O)c3ccccc3C2=O)C(=O)N1 (stereo not drawn) [Thalidomide] .
TER
